Assay: RP, Waters ACQUITY UPLC HSS T3, 100 × 2.1 mm, 1.8 µm, 30 °C, 0.3 mL/min, estimated dead time 0.73 min; A: water + 0.1% formic acid, pH 3; B: methanol + 0.1% formic acid, pH 3; gradient (min/%B) 0/0 6/0 56/100 60/100
Details: stereoisomer not certain
value_type: LC retention time (min)

Here is how some compounds turned out for LC retention time.
{"compound": "C=CC1CN2CCC1CC2C(O)c1ccnc2ccccc12 (centres undefined) [chinchonidine sulphate]", "unit_spec": "min", "LC retention time": 19.1}
{"compound": "O=c1c(OC2OC(COC3OCC(O)C(O)C3O)C(O)C(O)C2O)c(-c2ccc(O)c(O)c2)oc2cc(O)cc(O)c12 (centres undefined) [peltatoside]", "unit_spec": "min", "LC retention time": 28.3}
{"compound": "Cn1c(=O)c2c(ncn2C)n(C)c1=O [caffeine]", "unit_spec": "min", "LC retention time": 20.4}
{"compound": "Nc1ccccc1C(=O)O [anthranilic acid]", "unit_spec": "min", "LC retention time": 19.1}
{"compound": "COc1cc2ccc(=O)oc2cc1O [scopoletin]", "unit_spec": "min", "LC retention time": 24.6}

I: O=C(C=Cc1ccc(O)cc1)OC(C(=O)O)C(O)C(=O)O (stereo not drawn) [trans coutaric acid]
II: OCC(O)C(O)C(O)C(O)CO (centres undefined) [mannitol]
III: CCCCCCCCCCCCCCCCC(=O)OC [methyl heptadecanoate]
Put the items in sequence by LC retention time, from largest down. API: response body holds the labels in the requested order. III, I, II
